Provide the reported Phage binding ELISA signal, Anti-PSMA Fab in presence of PSMA of each item.
EXPERIMENTAL_SYSTEM: T1, PSMA Fab (006 PSMA Fab) (Fab biotinylated for capture on neutravidin plates (site not stated))
T1 construct: also called Anti-PSMA Fab; anti-PSMA Fab
PROTOCOL_NOTES: phage ELISA: clonal phage supernatant on biotinylated PSMA Fab captured on neutravidin plate, wells pre-incubated with PSMA antigen as competitor, anti-M13-HRP detection
Please reply with the value in numeric form only.

Name the recorded Phage binding ELISA signal, Anti-PSMA Fab in presence of PSMA for LEHMCRPSWMCTGF [Phage-3085 (peptide-180 library clone)] .
0.0798

Item under review: TASWCKPGGACKGF [Phage-3074 (peptide-180 library clone)] . Reported Phage binding ELISA signal, Anti-PSMA Fab in presence of PSMA?
0.0801

What value of measured Phage binding ELISA signal, Anti-PSMA Fab in presence of PSMA is listed for GQNLCIPSWMCEGF [Phage-3083 (peptide-180 library clone)] ?
0.08

Tell me the measured Phage binding ELISA signal, Anti-PSMA Fab in presence of PSMA of EWMKCVPLWMCEGI [Phage-3080 (peptide-180 library clone)] , please.
0.0802

Any idea what Phage binding ELISA signal, Anti-PSMA Fab in presence of PSMA was measured for LDAMCRPLWMCSGF [Phage-3084 (peptide-180 library clone)] ?
0.0799

Form field: reported Phage binding ELISA signal, Anti-PSMA Fab in presence of PSMA of TDHLCVPSWMCLGF [Phage-3081 (peptide-180 library clone)]
0.0801
